Molecular target: T1, Peptide F (monkey PAR-2), N-terminal biotinylated (Monkey (Macaca mulatta), N-terminal biotin via G4S linker)
T1 construct: also called Peptide F N-Term
T1 sequence (peptide, as listed by the source): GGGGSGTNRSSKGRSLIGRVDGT
Experiment: SPR, peptide immobilized
For each of the binders below, state its T1/2.
Numbers only, in min.

Known T1/2 results, listed for orientation:
# binder, T1/2, min
measured = [
    ("H4H581P (antibody, human IgG4, V domains shown, also called mAb H4H581P; H1H581P variable regions) VH: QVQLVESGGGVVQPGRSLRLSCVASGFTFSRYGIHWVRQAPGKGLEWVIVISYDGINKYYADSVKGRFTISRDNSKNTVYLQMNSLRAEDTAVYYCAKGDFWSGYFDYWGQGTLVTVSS VL: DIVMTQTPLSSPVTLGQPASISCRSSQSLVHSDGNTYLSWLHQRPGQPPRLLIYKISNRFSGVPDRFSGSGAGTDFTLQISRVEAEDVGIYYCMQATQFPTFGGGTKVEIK", 78),
    ("H4H585P (antibody, human IgG4, V domains shown, also called H1H585P variable regions) VH: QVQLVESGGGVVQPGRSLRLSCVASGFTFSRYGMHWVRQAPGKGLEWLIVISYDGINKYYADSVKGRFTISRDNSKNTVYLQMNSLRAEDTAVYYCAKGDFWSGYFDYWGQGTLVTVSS VL: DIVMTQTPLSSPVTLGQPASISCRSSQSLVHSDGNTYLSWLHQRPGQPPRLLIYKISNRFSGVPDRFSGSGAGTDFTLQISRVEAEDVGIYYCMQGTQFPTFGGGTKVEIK", 66),
    ("H4H588N (antibody, human IgG4, V domains shown, also called H2M588N variable regions) VH: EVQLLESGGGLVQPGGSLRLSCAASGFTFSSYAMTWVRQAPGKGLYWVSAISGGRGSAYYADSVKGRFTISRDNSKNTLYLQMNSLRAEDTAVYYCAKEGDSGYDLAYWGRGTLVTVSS VL: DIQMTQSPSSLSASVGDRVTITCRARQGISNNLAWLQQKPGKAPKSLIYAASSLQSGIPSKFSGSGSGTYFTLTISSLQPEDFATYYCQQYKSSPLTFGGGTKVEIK", 94),
]

// next entry
Qu. Consider the binder H4H579P (antibody, human IgG4, V domains shown, also called H1H579P variable regions) VH: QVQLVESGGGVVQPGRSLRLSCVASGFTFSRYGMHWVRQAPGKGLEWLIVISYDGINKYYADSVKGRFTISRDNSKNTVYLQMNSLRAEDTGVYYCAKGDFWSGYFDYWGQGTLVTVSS VL: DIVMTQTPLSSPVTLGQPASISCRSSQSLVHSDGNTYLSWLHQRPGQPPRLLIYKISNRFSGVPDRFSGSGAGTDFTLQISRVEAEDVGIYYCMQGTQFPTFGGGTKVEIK and give its measured T1/2.
Ans. 70

Source listed as patent US20110059095A1.
